System: SW-620 colon
experiment.notes: NCI tumour cell line growth inhibition, 48 h
assay.readout: TGI

| compound | reported |
| --- | --- |
| Cc1ccc(C(=O)OC(C)C)cc1N=NN(C)C | > 100 µM |
| COc1ccc([C@@H]2CC(=O)NCCCNCCCCNCCCN2)cc1 | > 100 µM |
| CN(C)CCN1C(=O)c2cccc3c(N)ccc(c23)C1=O | > 25 µM |
| OC1CSCCCSCCSCCCSC1 | > 100 µM |
| CCCCCCCC/C=C\CCCCCCCC(=O)OC[C@]1(CO)CCC(=O)O1 | > 100 µM |
| CCOC(=O)/C(=C\c1ccnc2ccccc12)P(=O)(OCC)OCC | 5.27 µM |
| C=C(C)C1CC2=C(O1)C(=O)c1ccccc1C2=O (configuration not stated) | 48.4 µM |
| Cc1cc(C)c(S(=O)(=O)N(CCCCCCN)OCCCN)c(C)c1 | 40.4 µM |
| Cc1ccc(/C=C/C(=O)C(C)C)cc1 | > 100 µM |
| CC1=CSC(O)(c2ccc(Cl)cc2)c2noc(=O)n21 (configuration not stated) | > 100 µM |
| COc1ccc2c(c1)CC[C@@H]1[C@@H]2CC[C@]2(C)c3[nH]ncc3C[C@@H]12 | > 50 µM |
| O=C1N(CN2CCOCC2)CN(CN2CCOCC2)C(=O)N1Cc1ccc(-c2ccc(CN3C(=O)N(CN4CCOCC4)CN(CN4CCOCC4)C3=O)cc2)cc1 | 30.7 µM |
| O=S(Nc1ccccc1)c1ccc(-c2ccccc2)cc1 (configuration not stated) | > 100 µM |
| Nc1ccc(OCC(O)N2C(=O)c3ccccc3C2=O)cc1 (configuration not stated) | > 100 µM |
| CSc1c(S(C)=O)[nH]c2cc(Br)cc(Br)c12 (configuration not stated) | > 100 µM |
| OC(COc1cccc2ccccc12)CN1CCN(c2ccc(Cl)cc2)CC1 (configuration not stated) | > 100 µM |
| O=C1c2ccc3c4c(ccc(c24)C(=O)N1CCCNCc1ccccc1)C(=O)N(CCCNCc1ccccc1)C3=O | 0.326 µM |
| O=C(O)c1c([N+](=O)[O-])cc(C(F)(F)F)cc1[N+](=O)[O-] | > 100 µM |
| CCN1CCC2(CC1)NC(=O)c1c(c3ccc(Cl)c(Cl)c3n1C)C2C#N (configuration not stated) | 3.77 µM |
| Cc1cc(S(N)(=O)=O)c(S/C(=N\Nc2ccc([N+](=O)[O-])cc2)c2ccc(O)cc2)cc1Cl | 11.6 µM |
| c1ccc(-n2cnnc2-c2nsc3ccccc23)cc1 | > 100 µM |
| COc1ccc(/C=N/NC(=O)c2ccccc2Nc2ccccc2C(=O)N/N=C/c2ccc(OC)cc2)cc1 | > 100 µM |

* * *

# TGI per entry
Tested on: HL-60(TB) leukemia
experiment.notes: NCI tumour cell line growth inhibition, 48 h
assay.readout: TGI

| molecule | tested.on | reported |
| --- | --- | --- |
| COC(=O)CCCC(=O)NC1=C(Nc2ccccc2)C(=O)c2ccccc2C1=O | HL-60(TB) leukemia | 49.7 µM |
| COc1ccc2[nH]c3c([N+](=O)[O-])ccc(Cl)c3c(=O)c2c1 | HL-60(TB) leukemia | 9.84 µM |
| C/C(=N/NC(=S)N(C)CCc1ccccn1)c1cnccn1 | HL-60(TB) leukemia | > 100 µM |
| CCOC(=O)C12CCSC1C1(C#N)C(C#N)=CC2(N=P(c2ccccc2)(c2ccccc2)c2ccccc2)n2c(=O)n(-c3ccccc3)c(=O)n21 (stereo unspecified) | HL-60(TB) leukemia | 71.5 µM |
| CC1(C)C(=O)N(O)C(C)(C)N1N=O | HL-60(TB) leukemia | > 10 µM |
| O=c1c2[nH]c3ccccc3c2nc2n1CCS2 | HL-60(TB) leukemia | > 100 µM |
| O=[N+]([O-])c1cccc(/C=C/c2ccccn2)c1 | HL-60(TB) leukemia | > 100 µM |
| FC(F)(F)c1ccc2c(c1)nc(Cc1ccc(Cl)c(Cl)c1)n2CC1CCCN2CCCCC12 (stereo unspecified) | HL-60(TB) leukemia | 51.3 µM |
| C=C(C)C(=O)OC1C(C(C)CCCO)=C(CO)CC2OC(=O)C(=C)C21 (stereo unspecified) | HL-60(TB) leukemia | > 100 µM |
| O=C(/C=c1\oc(=O)/c(=C/C(=O)c2ccc(Cl)cc2)oc1=O)c1ccc(Cl)cc1 | HL-60(TB) leukemia | > 100 µM |
| Fc1ccc2c(c1)SC1Oc3ccccc3-c3c1c-2nn3-c1ccccc1 (stereo unspecified) | HL-60(TB) leukemia | > 100 µM |
| CCOC(=O)CCC(NC(=O)c1ccc(Nc2cnc3cc(C(F)(F)F)ccc3n2)cc1)C(=O)OCC (stereo unspecified) | HL-60(TB) leukemia | > 100 µM |
| OC(Cc1ccccc1)(Cc1ccccc1)c1ccccc1 | HL-60(TB) leukemia | 52.8 µM |
| COc1ccc(-c2nn(-c3ccc(NC(=O)Nc4ccc(Cl)c(Cl)c4)cc3)cc2-c2ccncc2)cc1Cl | HL-60(TB) leukemia | 6.6 µM |
| CC(C)c1cccc(C(C)C)c1NC(=O)C(=O)CC(=O)CC(c1ccccc1)c1c(O)c2ccccc2oc1=O (stereo unspecified) | HL-60(TB) leukemia | > 100 µM |
| O=C(C[C@@]1(O)C(=O)Nc2c(Cl)ccc(Cl)c21)c1ccc(C2CC2)cc1 | HL-60(TB) leukemia | 1.07 µM |
| CN(C)c1ccc(/C=C/c2ccnc3ccc4ccccc4c23)cc1 | HL-60(TB) leukemia | > 100 µM |
| O=[N+]([O-])c1ccc(/C=N\Nc2ccc([N+](=O)[O-])cn2)cc1 | HL-60(TB) leukemia | > 100 µM |
| COC(=O)c1ccc(/C=C2\Cc3ccccc3C2=O)cc1 | HL-60(TB) leukemia | > 100 µM |
| Nc1ccc(OCC(O)N2C(=O)c3ccccc3C2=O)cc1 (stereo unspecified) | HL-60(TB) leukemia | > 100 µM |
| O=S(=O)(CC#CCCCOCC#Cc1ccccc1C#CCS(=O)(=O)c1ccccc1)c1ccccc1 | HL-60(TB) leukemia | 50.1 µM |

* * *

System: NCI/ADR-RES ovarian
experiment.notes: NCI tumour cell line growth inhibition, 48 h
# TGI per entry
assay.readout: TGI

| compound | assay.readout | reported |
| --- | --- | --- |
| CCOC(=O)CCC(NC(=O)c1ccc(Nc2cnc3cc(C(F)(F)F)ccc3n2)cc1)C(=O)OCC (stereo unspecified) | TGI | > 100 µM |
| Cc1cc(Nc2cc(CN3CCOCC3)c3nc(C)c(Cc4ccc(Cl)cc4F)n3n2)n[nH]1 | TGI | 18.7 µM |
| CC(C)C(C/C=C1/CC(CO)(COC(=O)C(C)(C)C)OC1=O)C(C)C (stereo unspecified) | TGI | 36.6 µM |
| O=C(C[C@@]1(O)C(=O)Nc2c(Cl)ccc(Cl)c21)c1ccc(C2CC2)cc1 | TGI | 13.9 µM |
| C=CC(=O)NCCOc1cccc(Nc2cc(NCCCNC(=O)C3CCC3)c(Br)cn2)c1 | TGI | > 25 µM |
| Cc1ccc(S(=O)(=O)NC(=O)NC(C(=O)O)C(C)O)cc1 (stereo unspecified) | TGI | > 100 µM |
| COC(=O)c1ccc(/C=C2\Cc3ccccc3C2=O)cc1 | TGI | > 100 µM |
| CC(=O)Nc1ccc(-c2nc3ccccc3s2)cc1Cl | TGI | > 100 µM |
| CC(=O)/C(N=Nc1ccc(-n2c(C)nc3ccc(Br)cc3c2=O)cc1)=C(/C)O | TGI | > 100 µM |
| Clc1ccccc1-c1nc(-c2ccncc2)no1 | TGI | > 100 µM |
| C[N+]1(C)CCOC(O)(c2ccccc2)C1 (stereo unspecified) | TGI | > 100 µM |

* * *

Tested on: NCI/ADR-RES ovarian
experiment.notes: NCI tumour cell line growth inhibition, 48 h
# TGI per entry

| compound | tested.on | units.symbol | result.comparator | TGI |
| --- | --- | --- | --- | --- |
| Cc1ccc(Nc2[nH]c(C(=O)c3ccc(Cl)cc3)c(N)c2C(=S)Nc2ccccc2)nc1 | NCI/ADR-RES ovarian | µM | = | 87.7 |
| Cc1ccc(/C=N/Nc2cc(C)c3ccccc3n2)s1 | NCI/ADR-RES ovarian | µM | = | 90.6 |
| CC(=O)/C=C(/C=N/O)c1ccccc1 | NCI/ADR-RES ovarian | µM | > | 100 |
| CCN1/C(=C/C=C/C=C/c2sc3ccccc3[n+]2CC)Sc2ccccc21 | NCI/ADR-RES ovarian | µM | = | 16.7 |
| OC(COc1cccc2ccccc12)CN1CCN(c2ccc(Cl)cc2)CC1 (stereo unspecified) | NCI/ADR-RES ovarian | µM | = | 61.1 |
| O=C(Nc1ccc(Cl)cc1F)c1cc(F)ccc1O | NCI/ADR-RES ovarian | µM | = | 7.1 |
